Test: NCI Yeast Anticancer Drug Screen. Data for the rad50 strain (AID 155);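 note: 0% = growth of vehicle-only cultures of the same strain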
Settings: S. cerevisiae rad50 strain growth inhibition; at 50.0 µM; stronger effect = higher value
Description: Growth inhibition of yeast strains with defined genetic alterations is measured as a screen for potential anti-cancer activity. Selected strains with alterations in DNA damage repair or cell cycle control were exposed to compounds and growth inhibition was measured relative to vehicle treated controls. The strain used in this assay is rad50
The panel holds about 79,000 compounds, 15% with a hit somewhere; the sample as a whole holds those more often. Where a SMILES comes first, the peptide text is derived from it. The star is where a group is joined. Boc = CC(C)(C)OC(=O)*

compound: CCCCCCNC(=O)CCC(NC(=O)c1ccc(N(C)Cc2cnc3nc(N)nc(N)c3n2)cc1)C(=O)NCCCCCC (stereo unspecified)
growth inhibition, %: 18.2
--
compound: Cc1ccc(/C(O)=C/c2nc3c(nc2NC24CC5CC(CC(C5)C2)C4)c(=O)oc2ccccc23)cc1
growth inhibition, %: 5.65
--
compound: O=C(O)C(Cc1c[nH]c2ccccc12)Nc1ccc([N+](=O)[O-])cc1[N+](=O)[O-] (stereo unspecified)
growth inhibition, %: -27.7
--
compound: O=C(O)CCCC[P+](c1ccccc1)(c1ccccc1)c1ccccc1
growth inhibition, %: 21.1
--
compound: COc1ccc2c(C#N)cc3c4ccccc4ncc3c2c1
growth inhibition, %: 16.6
--
compound: O=C(N/C(=C\c1ccccc1)C(=O)N1CCNCC1)c1ccccc1
growth inhibition, %: -1
--
compound: CCC(C(=O)O)C(=O)O.[NH-]CC1CCCC[N-]1.[Pt+2]
growth inhibition, %: 7.7
--
compound: COc1ccc(/C(=N\NC(=O)C(=O)NN)C(c2ccc(OC)cc2)C2(O)C(=O)Nc3ccccc32)cc1 (stereo unspecified)
growth inhibition, %: -19.6
--
compound: CCN(CC)Cc1cc(Nc2ccnc3ccc4nn(C)nc4c23)ccc1O
growth inhibition, %: -16.4
--
compound: Nc1nc(-c2ccc3c(ccc4ccccc43)c2)cs1
growth inhibition, %: 7.6
--
compound: COC(=O)C(Cc1ccccc1)NC(=O)C(Cc1ccccc1)NC(=O)OC(C)(C)C (stereo not drawn) (Boc-Phe-Phe-OMe; configuration not given here)
growth inhibition, %: -7.05
--
compound: COc1ccc(C(c2c(O)c3ccccc3oc2=O)N2CCCC2)c(OC)c1 (stereo unspecified)
growth inhibition, %: 7.7
--
compound: C[N+]1(C)CCC(c2ccccc2)(c2ccccc2)C(O)C1 (stereo unspecified)
growth inhibition, %: -8.85
--
compound: C=CCON(C)c1ccc([N+](=O)[O-])cc1[N+](=O)[O-]
growth inhibition, %: 15.3
--
compound: CCOC(=O)NC(NC(=O)OCC)c1ccc(OC)cc1
growth inhibition, %: -7.7
--
compound: O=C1C(=O)N(c2ccc(Cl)cc2Cl)C(=O)C(=O)C1c1nc2ccccc2s1
growth inhibition, %: 43.1
--
compound: COc1ccc2c(c1)N(CC(C)CN(C)C)c1ccccc1S2 (stereo unspecified)
growth inhibition, %: 0.75
--
compound: CCOC(=O)c1c(O)nc2sc3ccccc3n2c1=O
growth inhibition, %: 19
--
compound: COc1cccc(OC)c1C
growth inhibition, %: 15.1
--
compound: C=C1C(=O)O[C@@H]2C(=O)[C@@H](C)[C@@H]3C=CC(=O)[C@@]3(C)[C@@H](OC(=O)/C(C)=C\C)[C@H]12
growth inhibition, %: -2.4
--
compound: COc1cccc(-c2nnc(-c3cccc(OC)c3)o2)c1
growth inhibition, %: 25.4
--
compound: OC1(c2ccccc2)c2ccccc2Oc2cc(Cl)ccc21 (stereo unspecified)
growth inhibition, %: 9.4
--
compound: O=CC(NC(=O)N(CCF)N=O)C(O)C(O)C(O)CO (stereo unspecified)
growth inhibition, %: -15
--
compound: CCN(CC)C(=S)Oc1cc(C)nc(SCC(=O)c2ccc(Cl)cc2)n1
growth inhibition, %: 22.6
--
compound: Clc1ccccc1C(N1CCCCC1)C(Cl)(Cl)Cl (stereo unspecified)
growth inhibition, %: 26.6
--
compound: Cc1cc(C)c(C(=O)CCC(=O)O)c(C)c1
growth inhibition, %: 11.8
--
compound: COC1C=CC2OC(c3ccccc3)OCC2O1 (stereo unspecified)
growth inhibition, %: -16.2
--
compound: Cc1cc(-c2ccc(NC(=O)c3cccc([N+](=O)[O-])c3)c(C)c2)ccc1NC(=O)c1cccc([N+](=O)[O-])c1
growth inhibition, %: -19.2
--
compound: CCCCSc1ccc2n(C)c(-c3ccc(/C=N\NC(=O)c4ccc(C(=O)N/N=C\c5ccc(-c6c[n+]7cc(SCCCC)ccc7n6C)cc5)cc4)cc3)c[n+]2c1
growth inhibition, %: -15.8
--
compound: Cc1ccc(C(=O)Nc2ccc(CP(=O)(O)O)cc2)cc1NC(=O)c1cccc(N)c1
growth inhibition, %: -27.2
--
compound: CC(C)C(C(=O)O)C(=O)O
growth inhibition, %: 3.55
--
compound: CN(C)Cc1ccccc1O
growth inhibition, %: 4.15
--
compound: CN1CNC(=S)NC1
growth inhibition, %: 10.2
--
compound: NC(=O)NC(=O)c1ccco1
growth inhibition, %: 52.7
--
compound: CC(NC(=O)C1CCCN1C(=O)OCc1ccccc1)C(=O)O (stereo unspecified)
growth inhibition, %: -7.7
--
compound: Cc1cc2cc3c(C)cc(=O)oc3c(C)c2o1
growth inhibition, %: -35.1
--
compound: CCN1CCCC(N)C1 (stereo unspecified)
growth inhibition, %: -26.1
--
compound: CC12CCCCC1C1=C(CCCC1)CC2 (stereo unspecified)
growth inhibition, %: -4.1
--
compound: CCOC(=O)/C=C\SCCC(=O)O
growth inhibition, %: 10.1
--
compound: C[N+]1(C)CCC[N+](C)(C)CC1
growth inhibition, %: -15.9
--
compound: CCCCCCc1ccccn1
growth inhibition, %: 4.6
